Biological target: D(4) dopamine receptor (Homo sapiens)
Sequence (P21917 whole entry): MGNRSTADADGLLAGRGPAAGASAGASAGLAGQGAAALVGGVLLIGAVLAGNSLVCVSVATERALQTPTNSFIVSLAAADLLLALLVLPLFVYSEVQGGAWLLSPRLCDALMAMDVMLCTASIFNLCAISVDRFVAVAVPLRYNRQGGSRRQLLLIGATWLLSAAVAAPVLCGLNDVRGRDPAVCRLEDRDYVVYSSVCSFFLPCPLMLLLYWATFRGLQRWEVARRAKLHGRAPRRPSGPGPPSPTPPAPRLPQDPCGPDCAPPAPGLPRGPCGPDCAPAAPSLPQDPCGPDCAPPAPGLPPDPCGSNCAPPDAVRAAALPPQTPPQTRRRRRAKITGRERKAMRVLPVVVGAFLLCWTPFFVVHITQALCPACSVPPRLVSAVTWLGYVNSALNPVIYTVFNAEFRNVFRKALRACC
READOUT KIND: pIC50
Quick note: pIC50 values are minus log10 of concentrations in mol/L.

What value of measured pIC50 is listed for `O=C1c2ccccc2S(=O)(=O)N1CCCCN1CCN(c2ncccn2)CC1` ? 5.74

---

Assay: Inhibition of hydroxytryptamine 2A receptor
READOUT KIND: IC50
The reply should read as a number followed by its unit.

What value of measured IC50 is listed for `O=C1c2ccccc2S(=O)(=O)N1CCCCN1CCN(c2ncccn2)CC1` ? 2.6 µM

---

Target: UniProtKB P19327
READOUT KIND: log10 of IC50 (log10 of the value in nM)
Heads up: the numbers are on a log10 scale; they represent IC50 in nM.

Answered cases to consult:
COC(=O)c1ccc2[nH]cc(CCCCN3CCC(c4ccccc4)CC3)c2c1
1.30
COc1ccc(C2=CCN(CCCCc3c[nH]c4ccc(OC)cc34)CC2)cc1
-0.22
COc1ccc2[nH]cc(CCCCN3CCN(c4ccc(O)cc4)CC3)c2c1
0.30
N#Cc1c(F)cccc1N1CCN(CCCCc2c[nH]c3ccc(C(N)=O)cc23)CC1
-2.00
COC(=O)c1ccc2[nH]cc(CCCCN3CCN(c4ccccc4)CC3)c2c1
1.60

What value of measured log10 of IC50 is listed for `NC(=O)c1ccc2[nH]cc(CCCCN3CCN(c4ccccc4C(N)=O)CC3)c2c1` ? -0.52

What do we get for `COc1ccc2[nH]cc(CCCCN3CCN(c4ccc5c(c4)CCO5)CC3)c2c1` ? -0.40

What do we get for `CCOc1ccc(N2CCN(CCCCc3c[nH]c4ccc(OC)cc34)CC2)cc1` ? -0.10

What do we get for `COCCOc1ccc(N2CCN(CCCCc3c[nH]c4ccc(OC)cc34)CC2)cc1` ? 0.30

What do we get for `COc1ccc2[nH]cc(CCCCN3CCN(c4ccc(O[Si](C)(C)C(C)(C)C)cc4)CC3)c2c1` ? 1.85

---

Target: D(2) dopamine receptor (Rattus norvegicus, UniProt P61169)
Sequence (P61169 whole entry): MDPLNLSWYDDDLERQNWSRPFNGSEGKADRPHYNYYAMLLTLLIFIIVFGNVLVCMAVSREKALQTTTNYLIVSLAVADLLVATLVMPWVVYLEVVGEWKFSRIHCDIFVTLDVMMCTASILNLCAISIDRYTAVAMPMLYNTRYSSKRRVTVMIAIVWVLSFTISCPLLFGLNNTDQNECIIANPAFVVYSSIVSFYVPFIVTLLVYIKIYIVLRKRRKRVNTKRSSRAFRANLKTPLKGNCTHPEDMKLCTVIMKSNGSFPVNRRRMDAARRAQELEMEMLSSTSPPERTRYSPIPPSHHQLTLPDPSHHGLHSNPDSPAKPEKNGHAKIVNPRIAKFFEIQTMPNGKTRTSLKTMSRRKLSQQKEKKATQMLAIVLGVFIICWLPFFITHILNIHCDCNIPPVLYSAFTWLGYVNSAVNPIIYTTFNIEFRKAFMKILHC
Test: Displacement of [3H]spiperone from dopamine D2 receptor of rat striatal membranes
READOUT KIND: log10(IC50) (log10 of the value in nM)
Heads up: the numbers are on a log10 scale; they represent IC50 in nM.

Answered cases to consult:
COc1ccc2[nH]cc(CCCCN3CCN(c4ccc5c(c4)OCCO5)CC3)c2c1
2.08
NC(=O)c1ccc2[nH]cc(CCCCN3CCN(c4ccc(O)cc4)CC3)c2c1
2.19
NC(=O)c1ccc2[nH]cc(CCCCN3CCN(c4ccc5c(c4)CCCO5)CC3)c2c1
2.00

What value of measured log10(IC50) is listed for `COc1ccc2[nH]cc(CCCCN3CCN(c4ccc(O)cc4)CC3)c2c1` ? 1.72

What do we get for `COc1ccccc1N1CCN(CCCCc2c[nH]c3ccc(C(N)=O)cc23)CC1` ? 0.08

What do we get for `NC(=O)c1ccc2[nH]cc(CCCCN3CCN(c4ccc5c(c4)OCO5)CC3)c2c1` ? 1.34

---

Assay: Inhibition of 5-hydroxytryptamine 2C receptor
READOUT KIND: IC50 (nM)
Lab book: enter the figure in nM, no units written.

What value of measured IC50 is listed for `NC(=O)c1ccc2[nH]cc(CCCCN3CCN(c4ccc5c(c4)OCO5)CC3)c2c1` ? 800

---

Biological target: D(2) dopamine receptor (Rattus norvegicus)
Test: Displacement of [3H]spiperone from dopamine D2 receptor of rat striatal membranes
Recorded IC50, one value per entry.
Lab book: enter the figure in nM, no units written.

NC(=O)c1ccc2[nH]cc(CCCCN3CCN(c4ccc5c(c4)OCCO5)CC3)c2c1
40
N#Cc1ccccc1N1CCN(CCCCc2c[nH]c3ccc(C(N)=O)cc23)CC1
6.2
O=C(O)c1ccc2[nH]cc(CCCCN3CCC(c4ccccc4)CC3)c2c1
1000
COc1ccc(N2CCN(CCCCc3c[nH]c4ccc(OC)cc34)CC2)cc1
420
COC(=O)c1ccc2[nH]cc(CCCCN3CCN(c4ccccc4)CC3)c2c1
31

With those in mind, consider the next compound.
What value of measured IC50 is listed for `CCOc1ccc2[nH]cc(CCCCN3CCN(c4ccc(OC)cc4)CC3)c2c1` ? 300

---

Molecular target: D(2) dopamine receptor (Rattus norvegicus)
Assay: Displacement of [3H]spiperone from dopamine D2 receptor of rat striatal membranes
pIC50: −log10 of the molar value.
Recorded pIC50, one value per entry.

Answered cases to consult:
NC(=O)c1ccc2[nH]cc(CCCCN3CCN(c4ccc5c(c4)CCO5)CC3)c2c1
< 7.00
CCOc1ccc(N2CCN(CCCCc3c[nH]c4ccc(OC)cc34)CC2)cc1
< 7.00
COc1ccc2[nH]cc(CCCCN3CC=C(c4ccc5c(c4)OCO5)CC3)c2c1
< 7.00
COc1ccc2[nH]cc(CCCCN3CCN(c4ccc(OC(C)=O)cc4)CC3)c2c1
< 7.00

With those in mind, consider the next molecule.
What value of measured pIC50 is listed for `COc1ccc2[nH]cc(CCCCN3CCN(c4ccc5c(c4)OCO5)CC3)c2c1` ? 7.00

---

Recorded pIC50, one value per entry.
Target: D(2) dopamine receptor (Rattus norvegicus, UniProt P61169)
Assay: Displacement of [3H]spiperone from dopamine D2 receptor of rat striatal membranes
Quick note: pIC50 values are minus log10 of concentrations in mol/L.

CCOCCOCCOc1cccc(N2CCN(CCCCc3c[nH]c4ccc(C(N)=O)cc34)CC2)c1C#N
7.55

With those in mind, consider the next compound.
What value of measured pIC50 is listed for `NC(=O)c1ccc2[nH]cc(CCCCN3CCC(c4ccccc4)CC3)c2c1` ? 7.77

---

Target: UniProt:P19327
Sequence (P19327 whole entry): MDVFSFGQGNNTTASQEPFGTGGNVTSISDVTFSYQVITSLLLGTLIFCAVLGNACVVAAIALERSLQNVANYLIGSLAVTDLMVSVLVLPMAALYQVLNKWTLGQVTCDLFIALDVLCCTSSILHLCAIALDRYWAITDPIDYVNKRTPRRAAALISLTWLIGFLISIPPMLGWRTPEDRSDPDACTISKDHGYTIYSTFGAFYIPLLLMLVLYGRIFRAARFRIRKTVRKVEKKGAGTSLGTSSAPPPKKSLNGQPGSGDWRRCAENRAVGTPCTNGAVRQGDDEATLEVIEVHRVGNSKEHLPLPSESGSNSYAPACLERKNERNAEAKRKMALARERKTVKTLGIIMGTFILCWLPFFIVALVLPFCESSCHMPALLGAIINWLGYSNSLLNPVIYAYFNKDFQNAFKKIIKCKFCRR
READOUT KIND: pIC50
Quick note: pIC50 values are minus log10 of concentrations in mol/L.

Answered cases to consult:
Oc1ccc2[nH]cc(CCCCN3CCN(c4ccccc4)CC3)c2c1
9.10
COc1ccc2[nH]cc(CCCCN3CCN(c4ccccc4)CC3)c2c1
7.70
COc1ccc2[nH]cc(CCCCN3CCN(c4ccc(OC(C)=O)cc4)CC3)c2c1
9.00
COc1ccccc1N1CCN(CCCCc2c[nH]c3ccc(C(N)=O)cc23)CC1
10.00

What value of measured pIC50 is listed for `COc1ccc2[nH]cc(CCCCN3CC=C(c4ccccc4)CC3)c2c1` ? 7.70

What do we get for `COc1ccc(N2CCN(CCCCc3c[nH]c4ccc(C(N)=O)cc34)CC2)cc1` ? 10.05

What do we get for `NC(=O)c1ccc2[nH]cc(CCCCN3CCN(c4ccccc4)CC3)c2c1` ? 10.00

What do we get for `NC(=O)c1ccc2[nH]cc(CCCCN3CCN(c4ccc5c(c4)OCCO5)CC3)c2c1` ? 9.70

What do we get for `Oc1ccc2[nH]cc(CCCCN3CC=C(c4ccccc4)CC3)c2c1` ? 9.10

What do we get for `COc1ccc2[nH]cc(CCCCN3CCN(c4ccc5c(c4)CCCO5)CC3)c2c1` ? 8.70

---

Recorded IC50, one value per entry.
Assay: Inhibition of Histamine H1 receptor
Lab book: enter the figure in nM, no units written.

COc1ccc(N2CCN(CCCCc3c[nH]c4ccc(C(N)=O)cc34)CC2)cc1
1000
COc1ccc(N2CCN(CCCCc3c[nH]c4ccc(OC)cc34)CC2)cc1
41
O=C1c2ccccc2S(=O)(=O)N1CCCCN1CCN(c2ncccn2)CC1 [IPSAPIRONE]
24

With those in mind, consider the next compound.
What value of measured IC50 is listed for `NC(=O)c1ccc2[nH]cc(CCCCN3CCN(c4ccc5c(c4)OCO5)CC3)c2c1` ? 19

---

Recorded IC50, one value per entry.
Biological target: D(2) dopamine receptor (Rattus norvegicus)
Assay: Displacement of [3H]spiperone from dopamine D2 receptor of rat striatal membranes

What value of measured IC50 is listed for `NC(=O)c1ccc(N2CCN(CCCCc3c[nH]c4ccc(C(N)=O)cc34)CC2)cc1` ? > 850 nM

What do we get for `COc1ccc(N2CCN(CCCCc3c[nH]c4ccc(OC(C)=O)cc34)CC2)cc1` ? > 100 nM

What do we get for `COc1ccc2[nH]cc(CCCCN3CCN(c4ccc(NC(C)=O)cc4)CC3)c2c1` ? > 100 nM
